- Tested target: Atrial natriuretic peptide receptor 1 (Homo sapiens) (UniProt P16066)
- Sequence (P16066 whole entry, looked up): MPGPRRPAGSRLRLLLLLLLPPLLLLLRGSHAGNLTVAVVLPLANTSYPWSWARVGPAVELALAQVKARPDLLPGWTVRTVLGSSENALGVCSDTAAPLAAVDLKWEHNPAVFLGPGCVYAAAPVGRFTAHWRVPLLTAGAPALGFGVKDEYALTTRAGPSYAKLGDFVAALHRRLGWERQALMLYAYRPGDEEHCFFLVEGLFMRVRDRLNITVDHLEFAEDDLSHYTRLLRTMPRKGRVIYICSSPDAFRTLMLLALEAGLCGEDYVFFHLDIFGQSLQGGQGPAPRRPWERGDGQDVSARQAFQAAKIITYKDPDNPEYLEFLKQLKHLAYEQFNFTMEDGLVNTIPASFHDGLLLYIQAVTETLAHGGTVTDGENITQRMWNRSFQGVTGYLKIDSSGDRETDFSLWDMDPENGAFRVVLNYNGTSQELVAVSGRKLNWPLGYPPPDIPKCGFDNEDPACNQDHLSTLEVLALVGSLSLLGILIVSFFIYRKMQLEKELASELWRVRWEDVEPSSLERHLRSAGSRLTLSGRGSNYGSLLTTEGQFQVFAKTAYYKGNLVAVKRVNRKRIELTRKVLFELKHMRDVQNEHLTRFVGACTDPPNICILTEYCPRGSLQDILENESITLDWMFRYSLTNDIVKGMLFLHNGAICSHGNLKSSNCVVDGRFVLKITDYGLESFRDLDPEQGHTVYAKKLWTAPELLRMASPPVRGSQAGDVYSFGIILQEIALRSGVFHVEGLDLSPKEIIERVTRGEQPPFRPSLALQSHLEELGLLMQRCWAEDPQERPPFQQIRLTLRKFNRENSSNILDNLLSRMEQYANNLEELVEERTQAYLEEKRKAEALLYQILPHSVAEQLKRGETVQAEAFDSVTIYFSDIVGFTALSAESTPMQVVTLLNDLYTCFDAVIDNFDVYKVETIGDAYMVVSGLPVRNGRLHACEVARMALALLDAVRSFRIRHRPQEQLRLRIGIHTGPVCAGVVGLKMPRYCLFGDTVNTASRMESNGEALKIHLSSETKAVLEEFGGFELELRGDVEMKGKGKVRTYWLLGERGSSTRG
- Test details: Natriuretic polypeptide receptor (hNpr1) antagonism - Primary qHTS; also: nearly all actives have a fitted effect of over 60% in size
- Test settings: HEK293 hNpr1 GloSensor cGMP, ANP-stimulated luminescence; series mostly up to 46.3 µM
Among all 76,000 compounds or so, about 1,200 (1.6%) were called active. Not shown: some 4% with an inconclusive outcome. Calls follow the shape of the full dose curve. The list comes from a sample in which actives are over-represented; it also holds close analogues and randomly drawn compounds.
Please reply with one of these outcomes: active, inactive

Use the examples below as a reference point.
- O=C(c1cccnc1)N1CCC(Cc2nc(C3CCOCC3)no2)CC1: inactive
- Cc1nn(Cc2ccccc2)c(C)c1[C@@H]1C=C[C@@H](NC(=O)NC(C)C)C1: inactive
- COc1ccccc1Nc1ncc2c(n1)CN(C(=O)COc1ccccc1)CCN2: inactive

**Query** Per the assay record, what outcome was assigned to CC(=O)N1CCCC(c2nn(-c3ccccc3)c(=O)[nH]2)C1 (stereo not given) ?
**Result** inactive

**Query** Answer briefly: the call reported for Cc1nn(-c2ccc(C(C)C)cc2)c(C)c1[C@@H]1C=C[C@@H](NC(=O)CC2(CC(=O)O)CCCC2)C1 in this assay.
**Result** inactive

**Query** Outcome? O=C(c1cccc(O)c1)N1CCNc2cnc(Nc3cccc(F)c3)nc2C1
**Result** active

====

- Tested target: Atrial natriuretic peptide receptor 1 (Homo sapiens) (UniProt P16066)
- Test details: Natriuretic polypeptide receptor (hNpr1) antagonism - Primary qHTS; also: nearly all actives have a fitted effect of over 60% in size
- Test settings: HEK293 hNpr1 GloSensor cGMP, ANP-stimulated luminescence; series mostly up to 46.3 µM
Among all 76,000 compounds or so, about 1,200 (1.6%) were called active. Another 4% or so got no clear call; they are omitted. Calls follow the shape of the full dose curve. The full list was thinned out, with actives kept by preference.
Answer with one of the outcomes 1 for active, 0 for inactive

Worked cases, answers included:
- O=C(c1cccc(F)c1)N1CCC(CCOc2ccc(F)cc2)C1 (configuration not stated): 0
- CCC(=O)N1CCc2oc(C)c(C(=O)NCCN(C)C)c2C1: 0
- CN1CCN(Cc2ccc(Nc3ncc(-c4cccnc4)c4c3OCC4)cc2)CC1: 0
- Cc1nn2c(c1-c1ccccc1Oc1ccccc1)N(C(=O)C(C)C)CCC2: 0
- COc1ccc(CNC(=O)N2CCC3(CC2)CC(N(C(C)=O)C2CC2)CCO3)cc1 (configuration not stated): 0
- Cc1cc(NC(=O)c2ccc3c(c2)OCCN(CCC(F)(F)F)C3)ccc1F: 0

**Query** Write down the call the test reported for this compound. Item: O=C(Cn1nc2n(c1=O)CCCC2)Nc1ccc(Cl)cc1
**Result** 0

**Query** Per the assay record, what outcome was assigned to COCC(=O)NC[C@H]1O[C@@H](CO)[C@@H](O)[C@H]1N1CCN(c2ccc(F)cc2)CC1 ?
**Result** 0

**Query** Tell me the assay call for C(=C\c1ccccc1)/CN1CCN(c2ncncn2)CC1 please.
**Result** 0

**Query** Check the results log: what was the call for COCCOC1CCN(C(=O)c2[nH]nc3c2COc2ccccc2-3)CC1 ?
**Result** 0

**Query** # lookup: test call for COc1cccc(C(=O)NCC2Cn3cccc3C(=O)N2Cc2ccccc2)c1 (configuration not stated)
**Result** 0

**Query** Lab log entry: COc1cccc(NC(=O)Cn2c(-c3ccccc3)nc(C)cc2=O)c1 — outcome as called in the assay?
**Result** 0

**Query** What did the test return for CC1(COCC2CC2)COc2ccc(C(=O)NCc3cccnc3)cc2N1 (configuration not stated) ?
**Result** 0

====

- Tested target: Atrial natriuretic peptide receptor 1 (Homo sapiens)
- Test details: Natriuretic polypeptide receptor (hNpr1) antagonism - Primary qHTS; also: nearly all actives have a fitted effect of over 60% in size
- Test settings: HEK293 hNpr1 GloSensor cGMP, ANP-stimulated luminescence; series mostly up to 46.3 µM
About 1,200 (1.6%) of roughly 76,000 compounds were called active. About 4% were inconclusive and are not listed. Calls come from the whole dose curve. This is one part of a sample in which actives are shown more often than they occur.
Your response should consist of one outcome taken from 1 for active, 0 for inactive

As a guide, the following entries are already answered.
- CCNc1cc(N2CCC(CCC(=O)N3CCc4ccccc4C3)CC2)ncn1: 1
- COc1ccc(-n2nc(C)c([C@H]3C=C[C@@H](OC(=O)Nc4cccc(F)c4)C3)c2C)cc1: 1
- COc1cccc(-c2noc(CC3CCN(C(=O)c4ccc(F)cc4)CC3)n2)c1: 1
- COc1cccc(C(=O)N2CCC(Cc3nc(-c4cnccn4)no3)CC2)c1: 0
- O=C(C1CC1)N1CCCC(c2noc(COc3ccccc3F)n2)C1 (centres undefined): 0
- COc1ccc(C(=O)N2CCCC(Cc3nc(C4CCOCC4)no3)C2)cc1 (centres undefined): 0
- Cc1nn(-c2cccc(Br)c2)c(C)c1[C@@H]1C=C[C@@H](NS(=O)(=O)c2ccccc2)C1: 0
- COc1ccc(NC(=O)N[C@@H]2C=C[C@@H](c3c(C)nn(-c4ccc(C(C)(C)C)cc4)c3C)C2)cc1: 0
- O=c1[nH]c(C2CCCN(Cc3ccccn3)C2)nn1-c1ccc(Cl)cc1 (centres undefined): 1
- Cc1nn(Cc2ccccc2)c(C)c1[C@@H]1C=C[C@@H](NC(=O)NC2CCCCC2)C1: 0

**Query** Identify the outcome logged in this assay for the compound shown: Cc1nn(-c2ccc(C(C)C)cc2)c(C)c1[C@@H]1C=C[C@@H](NC(=S)NCC(C)C)C1
**Result** 1

**Query** Hey, what did the test say about CCNc1cc(N2CCC(CCC(=O)Nc3ccc(C)cc3C)CC2)ncn1 ?
**Result** 0

**Query** Hey, what did the test say about O=C(Cc1ccc(F)cc1)N1CCCC(c2nn(-c3ccc(Cl)cc3)c(=O)[nH]2)C1 (centres undefined) ?
**Result** 0

**Query** Status in this test for O=C(c1ccccc1)N1CCC(C(=O)N2CCC(Cc3nc(-c4ccc(F)cc4)no3)CC2)CC1 ?
**Result** 1

====

- Tested target: Atrial natriuretic peptide receptor 1 (Homo sapiens)
- Test details: Natriuretic polypeptide receptor (hNpr1) antagonism - Primary qHTS; also: nearly all actives have a fitted effect of over 60% in size
- Test settings: HEK293 hNpr1 GloSensor cGMP, ANP-stimulated luminescence; series mostly up to 46.3 µM
The campaign covered roughly 76,000 compounds. About 1,200 (1.6%) were called active. Inconclusive results (about 4%) are left out. Calls follow the shape of the full dose curve. Only a selection was taken, and actives are over-represented in it overall.
Outcomes you can answer with include only these: T for active, F for inactive

Would you please look over these solved cases?
* COc1cccc(CNC(=O)Cn2c(N(C)Cc3ccccc3)nc(C)cc2=O)c1OC | T
* O=C(Cc1ccc(F)cc1)N1CCC2(CC1)NC(=O)N(c1ccccc1)N2 | F
* COc1ccc(-c2cc(N3CCN(C(=O)c4cc(OC)cc(OC)c4)CC3)n[nH]2)cc1 | F

**Query** Tell me the recorded outcome of this test for CCCN1C(=O)Cc2ccccc2C1C(=O)NCc1cccc(OC)c1OC (centres undefined) .
**Result** F

**Query** For CC1=NS(=O)(=O)N(C)C=C1C(=O)OCc1nc(-c2ccc(C)cc2)no1 , which call appears in the assay record?
**Result** T

**Query** Recorded call for O=C(Nc1cccnc1)c1ccc2c(c1)OCCN(c1ccccc1)C2 ?
**Result** F

**Query** I'd appreciate the recorded outcome for O=C(c1ccc(F)cc1F)N1CCN(c2cc(-c3ccc(Cl)cc3)[nH]n2)CC1 from this test.
**Result** T

**Query** Hey, what did the test say about OC1(Cc2cc(-c3ccccc3)no2)CCN(c2ncncn2)CC1 ?
**Result** T

**Query** Just curious, what result did O=C(c1ccoc1)N1CCN(C(=O)c2nnn3c2COC(c2ccc(Cl)cc2)C3)CC1 (centres undefined) get here?
**Result** F

**Query** Which outcome did this test record for the compound O=C(c1cc(F)ccc1Cl)N1CCN(c2cc(-c3ccc(F)cc3)[nH]n2)CC1 ?
**Result** T

**Query** Record request — test call for Cc1ccc(C2=NC3(CCN(C(=O)c4ccc(C#N)cc4)CC3)ON2)cc1
**Result** F

**Query** Could you check what this test reported for Cc1nn2c(c1-c1ccccc1-c1ccccc1)N(CC1CC1)CCC2 ?
**Result** T

**Query** Query: recorded result category for O=C(c1ccc2cc[nH]c2c1)N1CCC2(CC1)N=C(c1ccc(Cl)cc1)NO2 in this test
**Result** T

**Query** Call for entry O=C(c1ccc(Br)cc1)N1CCN(c2cc(-c3ccccc3)[nH]n2)CC1 :
**Result** F

**Query** What outcome does the record of this test show for COc1ccc(-c2cc(N3CCCN(C(=O)c4ccc(C)cc4)CC3)n[nH]2)cc1 ?
**Result** F

**Query** Give the logged outcome of this assay for the following compound: O=C(Nc1cccc(Cl)c1)c1cnc2c(c1)N(C(=O)CCc1ccccc1)CCC2
**Result** F

**Query** Status in this test for CN(C)C(=O)c1n[nH]c2c1CN(C(=O)c1cccc(C(F)(F)F)c1)CC2 ?
**Result** F

**Query** Please share the test call associated with Cc1ccc(C(=O)N2CCN(c3cc(-c4ccc(Cl)cc4)[nH]n3)CC2)c(C)c1 .
**Result** T

**Query** What did this assay record as the result for O=C(Nc1ccc(C(F)(F)F)cc1)N[C@@H]1C[C@H](CO)[C@@H](O)[C@H]1O ?
**Result** F
